Every entry's value here was drawn from patent US20250099474A1.

- System: SARS-CoV-2
- method.summary: Cytopathic effect (CPE) suppression effect confirmation test using VeroE6/TMPRSS2 cells
- Format: cell-based
- assay.setup: Severe acute respiratory syndrome coronavirus 2, VeroE6/TMPRSS2, Gamma strain (TY7-503)
measured.attribute: EC50
Please answer using a numeric value trailed by its unit.

Qu. State its EC50: `Cn1cnc(Cn2c(=O)[nH]/c(=N\c3cc4cn(C)nc4cc3Cl)n(Cc3cc(F)c(F)cc3F)c2=O)n1`
Ans. 0.43 µM

====

- System: SARS-CoV-2
- method.summary: Cytopathic effect (CPE) suppression effect confirmation test using VeroE6/TMPRSS2 cells
- Assay type: cell-based
- assay.setup: Severe acute respiratory syndrome coronavirus 2, VeroE6/TMPRSS2, Theta strain (TY28-444)
measured.attribute: pEC50
One number for each entry, as −log10 of the molar value.

Qu. State its pEC50: `Cn1cnc(Cn2c(=O)[nH]/c(=N\c3cc4cn(C)nc4cc3Cl)n(Cc3cc(F)c(F)cc3F)c2=O)n1`
Ans. 6.54
